# assay info: Therapeutic index, ratio of IC50 for cytotoxicity against mouse J774.A1 cells to IC50 for antiinflammatory activity in mouse J774.A1 cells
# Assay type: toxicity, cell-based
Give selectivity ratio for every item shown.
Write the number on its own, no unit after it.

Record `C=C1C(=O)O[C@@H]2[C@H]3O[C@@]3(C)CC/C=C(\C)CC[C@@H]12` , field selectivity ratio: 10.2

Record C=C1C(=O)O[C@H]2[C@H]1CCC(C)=C1CC[C@@](C)(O)[C@@H]12 [MICHELIOLIDE] , field selectivity ratio: 9.5

Record `O=S(=O)(c1ccccc1)c1no[n+]([O-])c1S(=O)(=O)c1ccccc1` , field selectivity ratio: 12.2

Record `CC1=C2CC[C@@](C)(O)[C@@H]2[C@H]2OC(=O)[C@@H](CN(C)CCOc3no[n+]([O-])c3S(=O)(=O)c3ccccc3)[C@@H]2CC1` , field selectivity ratio: 119

Record `CC1=C2CC[C@@](C)(O)[C@@H]2[C@H]2OC(=O)[C@@H](CN(C)CCCOc3no[n+]([O-])c3S(=O)(=O)c3ccccc3)[C@@H]2CC1` , field selectivity ratio: 140

Record `C/C1=C\CC[C@]2(C)O[C@@H]2[C@H]2OC(=O)[C@@H](CN(C)CCOc3no[n+]([O-])c3S(=O)(=O)c3ccccc3)[C@@H]2CC1` , field selectivity ratio: 80.3

Record `C/C1=C\CC[C@]2(C)O[C@@H]2[C@H]2OC(=O)[C@@H](CN(C)CCCOc3no[n+]([O-])c3S(=O)(=O)c3ccccc3)[C@@H]2CC1` , field selectivity ratio: 166

---

# subject of test: NACHT, LRR and PYD domains-containing protein 3 (Mus musculus, UniProt Q8R4B8)
# Sequence (Q8R4B8 whole entry, the tested form may be a part): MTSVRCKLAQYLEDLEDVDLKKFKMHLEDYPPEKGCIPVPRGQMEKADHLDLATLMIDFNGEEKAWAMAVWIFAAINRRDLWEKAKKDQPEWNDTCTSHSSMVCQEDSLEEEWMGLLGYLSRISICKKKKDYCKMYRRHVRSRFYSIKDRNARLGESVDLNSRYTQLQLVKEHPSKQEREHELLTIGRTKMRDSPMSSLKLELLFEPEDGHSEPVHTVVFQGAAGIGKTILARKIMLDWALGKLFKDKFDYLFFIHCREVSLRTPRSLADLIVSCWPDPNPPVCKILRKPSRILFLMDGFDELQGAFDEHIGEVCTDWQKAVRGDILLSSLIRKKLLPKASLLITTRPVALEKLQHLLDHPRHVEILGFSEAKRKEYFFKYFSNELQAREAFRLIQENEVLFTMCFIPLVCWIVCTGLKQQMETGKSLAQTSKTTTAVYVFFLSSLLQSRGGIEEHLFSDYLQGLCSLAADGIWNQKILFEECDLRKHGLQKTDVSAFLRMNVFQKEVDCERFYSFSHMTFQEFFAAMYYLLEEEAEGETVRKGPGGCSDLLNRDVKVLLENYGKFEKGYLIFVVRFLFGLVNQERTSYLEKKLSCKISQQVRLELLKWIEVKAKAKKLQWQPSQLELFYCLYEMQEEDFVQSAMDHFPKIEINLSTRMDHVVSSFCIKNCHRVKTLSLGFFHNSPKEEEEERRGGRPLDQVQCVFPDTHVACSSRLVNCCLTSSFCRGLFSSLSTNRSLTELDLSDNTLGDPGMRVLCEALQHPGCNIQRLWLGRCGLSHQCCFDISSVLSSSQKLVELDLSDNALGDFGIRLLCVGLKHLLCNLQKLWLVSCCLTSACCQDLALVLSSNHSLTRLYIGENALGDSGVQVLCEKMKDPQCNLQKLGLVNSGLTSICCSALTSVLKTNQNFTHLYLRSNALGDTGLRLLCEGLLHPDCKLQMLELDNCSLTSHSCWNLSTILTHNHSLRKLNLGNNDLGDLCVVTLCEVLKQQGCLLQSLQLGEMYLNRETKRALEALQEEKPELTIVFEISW
# assay info: Inhibition of NLRP3 inflammasome in mouse J774.A1 cells assessed as reduction in LPS-induced IL-1beta release
observation type: pIC50
Units for pIC50: none; it is -log10 of a concentration expressed in mol/L.

Record `C/C1=C\CC[C@]2(C)O[C@@H]2[C@H]2OC(=O)[C@@H](CN(C)CCOc3no[n+]([O-])c3S(=O)(=O)c3ccccc3)[C@@H]2CC1` has NACHT, LRR and PYD domains-containing protein 3 (Mus musculus, UniProt Q8R4B8) pIC50 equal to 6.52

Record `CC1=C2CC[C@@](C)(O)[C@@H]2[C@H]2OC(=O)[C@@H](CN(C)CCOc3no[n+]([O-])c3S(=O)(=O)c3ccccc3)[C@@H]2CC1` has NACHT, LRR and PYD domains-containing protein 3 (Mus musculus, UniProt Q8R4B8) pIC50 equal to 6.30

Record `C/C1=C\CC[C@]2(C)O[C@@H]2[C@H]2OC(=O)[C@@H](CN(C)CCCOc3no[n+]([O-])c3S(=O)(=O)c3ccccc3)[C@@H]2CC1` has NACHT, LRR and PYD domains-containing protein 3 (Mus musculus, UniProt Q8R4B8) pIC50 equal to 6.40

---

# assay info: Cytotoxicity against human HEK-293T cells
# Assay type: cell-based
# condition details: read-out: TC50 (the source's name)
Give CC50 for every item shown.
Use µM as the unit, but write only the number.

Record `C=C1C(=O)O[C@@H]2[C@H]3O[C@@]3(C)CC/C=C(\C)CC[C@@H]12` , field CC50: 29.9

Record `C/C1=C\CC[C@]2(C)O[C@@H]2[C@H]2OC(=O)[C@@H](CN(C)CCOc3no[n+]([O-])c3S(=O)(=O)c3ccccc3)[C@@H]2CC1` , field CC50: 69.8

Record `CC1=C2CC[C@@](C)(O)[C@@H]2[C@H]2OC(=O)[C@@H](CN(C)CCCOc3no[n+]([O-])c3S(=O)(=O)c3ccccc3)[C@@H]2CC1` , field CC50: 106

Record `C/C1=C\CC[C@]2(C)O[C@@H]2[C@H]2OC(=O)[C@@H](CN(C)CCCOc3no[n+]([O-])c3S(=O)(=O)c3ccccc3)[C@@H]2CC1` , field CC50: 166

Record `CC1=C2CC[C@@](C)(O)[C@@H]2[C@H]2OC(=O)[C@@H](CN(C)CCOc3no[n+]([O-])c3S(=O)(=O)c3ccccc3)[C@@H]2CC1` , field CC50: 56.5

Record C=C1C(=O)O[C@H]2[C@H]1CCC(C)=C1CC[C@@](C)(O)[C@@H]12 [MICHELIOLIDE] , field CC50: 51.7

Record `O=S(=O)(c1ccccc1)c1no[n+]([O-])c1S(=O)(=O)c1ccccc1` , field CC50: 22.4
